- assayed.system: Melatonin receptor type 1B (Homo sapiens)
- experiment: Intrinsic activity at human cloned MT2 receptor expressed in […] NIH3T3 cells assessed as increase of [35S]GTPgammaS binding relative to melatonin
- Assay type: functional, cell-based
Classification field: true = Ratio at or over 0.6; false = Ratio under 0.6.

[in] I'd appreciate it if you could say whether CC(=O)NCC(C)Oc1ccccc1 (stereo unspecified) has Ratio at least equal to 0.6.
[out] true

[in] Has "COc1cccc(O[C@@H](C)CNC(=O)C2CC2)c1" a recorded Ratio greater than or equal to 0.6?
[out] true

[in] In plain terms: is recorded Ratio at least 0.6 for "COc1ccc(OCCNC(C)=O)cc1" ?
[out] false
